Molecular target: MYT1 protein (Homo sapiens (Human))
Test: Test for binding to ATP binding site of MYT1 (Kinase Tracer 178 / Eu-Anti-GST antibody TR-FRET)
Details: ATP binding site of MYT1, 30 minutes at room temperature
QUANTITY_NAME: IC50 (nM)

[I] Nc1c(-c2ccc(F)c3[nH]ncc23)c2cc(O[C@H]3C[C@@H](F)C3)c3ncccc3c2[nH]c1=O
[II] Nc1c(-c2ccc(F)c3[nH]ncc23)c2cc(O[C@H]3C[C@H](F)C3)c3ncccc3c2[nH]c1=O
[III] Nc1c(-c2cc(F)c(F)c3[nH]ncc23)c2ccc3ncccc3c2[nH]c1=O
[IV] Nc1c(-c2cccc3[nH]ncc23)c2cc(C3CC3)c3ccncc3c2[nH]c1=O
Enquiry: Sort entries by IC50 from minimum to maximum value. Reply format: the labels, ordered as requested.
Return: I, II, IV, III

---

Target: MYT1 protein (Homo sapiens (Human))
Assay: Test for binding to ATP binding site of MYT1 (Kinase Tracer 178 / Eu-Anti-GST antibody TR-FRET)
Conditions: ATP binding site of MYT1, 30 minutes at room temperature
pIC50: −log10 of the molar value.
QUANTITY_NAME: pIC50

Nc1c(-c2cccc(O)c2)c2ccc3ccccc3c2[nH]c1=O | 7.66
CCOc1cc2c(-c3ccc(F)c4[nH]ncc34)c(N)c(=O)[nH]c2c2ccc(OC)nc12 | 8.21
Nc1c(-c2ccc(Cl)c3[nH]ncc23)c2cc(C3CCN(C4COC4)CC3)ccc2[nH]c1=O | 7.74

[a] Nc1c(-c2ccc(F)c3[nH]ncc23)c2cc(OC3CCCC3)c3ncccc3c2[nH]c1=O
[b] Nc1c(-c2ccc(F)c3[nH]ncc23)c2cc(C3CC4(CCC4)C3)c3ncccc3c2[nH]c1=O
[c] Nc1c(-c2ccc(F)c3[nH]ncc23)c2cc(N3CCC3)c3ncccc3c2[nH]c1=O
[d] Cn1cnc2c3[nH]c(=O)c(N)c(-c4ccc(F)c5[nH]ncc45)c3cc(C3CC3)c21
[e] Nc1c(-c2ccc(F)c3[nH]ncc23)c2cc(NS(=O)(=O)C3CC3)c3nccnc3c2[nH]c1=O
Enquiry: Exam item: list the entries in increasing order of pIC50. Reply format: the labels, ordered as requested.
Return: b, d, e, c, a
(b: 7.07, d: 7.72, e: 8.13, c: 8.52, a: 9.00)

---

Target: MYT1 protein (Homo sapiens (Human))
Experiment: Test for binding to ATP binding site of MYT1 (Kinase Tracer 178 / Eu-Anti-GST antibody TR-FRET)
Conditions: ATP binding site of MYT1, 30 minutes at room temperature
pIC50: −log10 of the molar value.
QUANTITY_NAME: pIC50

Some compounds with known pIC50 results, for comparison:
Nc1c(-c2ccc(F)c3[nH]ncc23)c2cc(OCC3(C(F)(F)F)CC3)c3ncccc3c2[nH]c1=O | 8.29
Nc1c(-c2cc(F)c(F)c3[nH]ncc23)c2cc(Cl)c3ncccc3c2[nH]c1=O | 8.51
Nc1c(-c2ccc(F)c3[nH]ncc23)c2cc(C3CCC3)c3ccccc3c2[nH]c1=O | 7.80
Cn1ncc2c(Br)cc3c(-c4ccc(F)c5[nH]ncc45)c(N)c(=O)[nH]c3c21 | 7.48
Cc1nc2[nH]c(=O)c(N)c(-c3ccc(Cl)c4[nH]ncc34)c2cc1O[C@H]1C[C@H](C#N)C1 | 8.30

[P] CC(C)(COc1cc2c(-c3ccc(F)c4[nH]ncc34)c(N)c(=O)[nH]c2c2cccnc12)C(F)(F)F
[Q] CCc1cc2c(-c3ccc(Cl)c4[nH]ncc34)c(N)c(=O)[nH]c2c2cccnc12
Enquiry: Which entry has a larger number for pIC50, P or Q ? // caller expects the label of the chosen entry
Return: Q

[a] Nc1c(-c2ccc(F)c3[nH]ncc23)c2cc(OCC3(F)CC3)c3ncccc3c2[nH]c1=O
[b] C#Cc1cc(Cl)cc2c(-c3ccc(Cl)c4[nH]ncc34)c(N)c(=O)[nH]c12
[c] Nc1c(-c2c(F)ccc3[nH]ncc23)c2cc(C3CC3)c3ncccc3c2[nH]c1=O (atropisomer, axis not shown) [Compound C158]
Enquiry: Arrange the 3 compounds from largest to smallest pIC50. Reply format: the labels, ordered as requested.
Return: c, a, b

---

Molecular target: MYT1 protein (Homo sapiens (Human), UniProt Q99640)
Sequence (Q99640 whole entry): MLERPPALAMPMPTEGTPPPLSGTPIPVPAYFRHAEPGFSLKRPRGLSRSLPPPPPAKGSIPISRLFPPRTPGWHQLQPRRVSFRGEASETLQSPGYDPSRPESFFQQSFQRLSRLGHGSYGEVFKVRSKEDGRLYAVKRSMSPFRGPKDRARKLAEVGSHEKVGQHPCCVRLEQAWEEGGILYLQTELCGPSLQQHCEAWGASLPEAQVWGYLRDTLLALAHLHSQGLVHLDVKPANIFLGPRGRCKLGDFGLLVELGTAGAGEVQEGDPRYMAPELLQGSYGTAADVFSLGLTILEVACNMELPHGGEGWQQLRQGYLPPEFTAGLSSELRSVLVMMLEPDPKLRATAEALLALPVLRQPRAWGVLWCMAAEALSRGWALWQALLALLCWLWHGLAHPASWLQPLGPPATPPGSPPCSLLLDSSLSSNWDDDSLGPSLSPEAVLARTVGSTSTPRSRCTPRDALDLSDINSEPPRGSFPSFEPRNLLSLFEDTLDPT
Assay: Test for binding to ATP binding site of MYT1 (Kinase Tracer 178 / Eu-Anti-GST antibody TR-FRET)
Conditions: ATP binding site of MYT1, 30 minutes at room temperature
Description: The binding capacity of each compound to the ATP binding site of MYT1 Kinase protein was evaluated. […] Thereafter, fluorescence wavelengths of 665 nm and 615 nm generated by irradiation with excitation light of 340 nm were detected using Envision (manufactured by PerkinElmer). The proportion of Tracer bound to MYT1 protein was calculated for every condition by dividing the intensity at the fluorescence wavelength of 665 nm by the intensity at the fluorescence wavelength of 615 nm.
QUANTITY_NAME: IC50 (nM)

Some molecules with known IC50 results, for comparison:
Cn1cnc2c3[nH]c(=O)c(N)c(-c4ccc(F)c5[nH]ncc45)c3cc(Br)c21 | 10
Cc1cc2c(-c3ccc(F)c4[nH]ncc34)c(N)c(=O)[nH]c2c2cc(B(O)O)cnc12 | 18
CC(C)(O)COc1cc2c(-c3ccc(F)c4[nH]ncc34)c(N)c(=O)[nH]c2c2cccnc12 | 6.5
COc1cc2c(-c3ccc(F)c4[nH]ncc34)c(N)c(=O)[nH]c2c2cc(F)cnc12 | 1.6
Nc1c(-c2ccc(F)c3[nH]ncc23)c2cc(CCC(F)F)c3ncccc3c2[nH]c1=O | 2.2
Cc1cc(Cl)cc2c(-c3ccc(Cl)c4[nH]ncc34)c(N)c(=O)[nH]c12 | 11

[a] CC(c1cc2c(-c3ccc(F)c4[nH]ncc34)c(N)c(=O)[nH]c2c2cccnc12)C(F)(F)F (stereo not shown)
[b] Nc1c(-c2cc(Cl)cc3[nH]ncc23)c2cc(Cl)ccc2[nH]c1=O
Enquiry: Of the pair a and b , name the member with the lesser recorded IC50. // caller expects the label of the chosen entry
Return: a
(a: 54 nM, b: 360 nM)

---

Target: MYT1 protein (Homo sapiens (Human), UniProt Q99640)
Test: Test for binding to ATP binding site of MYT1 (Kinase Tracer 178 / Eu-Anti-GST antibody TR-FRET)
Details: ATP binding site of MYT1, 30 minutes at room temperature
QUANTITY_NAME: IC50 (nM)

N#C[C@H]1C[C@H](Oc2cc3c(-c4ccc(F)c5[nH]ncc45)c(N)c(=O)[nH]c3c3cccnc23)C1 | 4.3

[a] CC(C)(O)CCOc1cc2c(-c3ccc(F)c4[nH]ncc34)c(N)c(=O)[nH]c2c2cccnc12
[b] CP(C)(=O)c1cc2c(-c3ccc(F)c4[nH]ncc34)c(N)c(=O)[nH]c2c2cccnc12
[c] COc1cc2c(-c3cc(F)c(Cl)c4[nH]ncc34)c(N)c(=O)[nH]c2c2cccnc12
Enquiry: Arrange the 3 compounds from largest to smallest IC50. Reply format: the labels, ordered as requested.
Return: b, a, c

[a] CS(=O)(=O)Nc1cc2c(-c3ccc(F)c4[nH]ncc34)c(N)c(=O)[nH]c2c2ncccc12
[b] Nc1c(-c2cccc(O)c2)c2cc(Cl)c3ccccc3c2[nH]c1=O
Enquiry: Of the pair a and b , name the member with the lesser recorded IC50. // caller expects the label of the chosen entry
Return: a
(a: 2.7 nM, b: 12 nM)

---

Target: MYT1 protein (Homo sapiens (Human), UniProt Q99640)
Assay: Test for binding to ATP binding site of MYT1 (Kinase Tracer 178 / Eu-Anti-GST antibody TR-FRET)
Settings: ATP binding site of MYT1, 30 minutes at room temperature
pIC50: −log10 of the molar value.
QUANTITY_NAME: pIC50

CO[C@@H](C)COc1cc2c(-c3ccc(F)c4[nH]ncc34)c(N)c(=O)[nH]c2c2cccnc12 | 8.44
CN1CCC(c2cc3c(-c4ccc(F)c5[nH]ncc45)c(N)c(=O)[nH]c3c3cccnc23)CC1 | 8.70

[1] Nc1c(-c2cc(F)c(F)c3[nH]ncc23)c2cc(O)c3ncccc3c2[nH]c1=O
[2] Cc1ccc2c(n1)c(I)cc1c(-c3ccc(F)c4[nH]ncc34)c(N)c(=O)[nH]c12
Enquiry: Which entry has a larger number for pIC50, 1 or 2 ? // caller expects the label of the chosen entry
Return: 1

---

Target: MYT1 protein (Homo sapiens (Human), UniProt Q99640)
Experiment: Test for binding to ATP binding site of MYT1 (Kinase Tracer 178 / Eu-Anti-GST antibody TR-FRET)
Settings: ATP binding site of MYT1, 30 minutes at room temperature
QUANTITY_NAME: IC50 (nM)

Nc1c(-c2ccc(F)c3[nH]ncc23)c2cc(N3CC(N4CC(F)(F)C4)C3)c3cccnc3c2[nH]c1=O [Compound D11] | 20
Nc1c(-c2cncc3[nH]ncc23)c2cc(Br)c3ncccc3c2[nH]c1=O [Compound C80] | 100
N#CC1(COc2cc3c(-c4ccc(F)c5[nH]ncc45)c(N)c(=O)[nH]c3c3cccnc23)CCC1 [Compound C55] | 0.92
CCc1cc2c(-c3ccc(F)c4[nH]ncc34)c(N)c(=O)[nH]c2c2ncccc12 [Compound D5] | 6.4
Nc1c(-c2ccc(F)c3[nH]ncc23)c2ccc3ccc(Cl)cc3c2[nH]c1=O [Compound B11] | 30

[a] Nc1c(-c2ccc(F)c3[nH]ncc23)c2cc(N3CCCC3=O)c3ncccc3c2[nH]c1=O [Compound C112]
[b] Nc1c(-c2cccc(O)c2)c2ccccc2[nH]c1=O [Compound A66]
Enquiry: Which entry has a larger number for IC50, a or b ? // caller expects the label of the chosen entry
Return: b

[1] Nc1c(-c2ccc(F)c3[nH]ncc23)c2cc(OCC(F)(F)F)c3ncccc3c2[nH]c1=O [Compound C15]
[2] Nc1c(-c2ccc(Cl)c3[nH]ncc23)c2ccc3ncccc3c2[nH]c1=O [Compound C144]
Enquiry: Of the pair 1 and 2 , name the member with the lesser recorded IC50. // caller expects the label of the chosen entry
Return: 1

[1] N#C[C@H]1C[C@H](Oc2cc3c(-c4ccc(Cl)c5[nH]ncc45)c(N)c(=O)[nH]c3cc2F)C1 [Compound A5]
[2] CCc1cc2c(-c3ccc(Cl)c4[nH]ncc34)c(N)c(=O)[nH]c2c2ccccc12 [Compound B38]
[3] Nc1c(-c2cccnc2)c2cc(Cl)ccc2[nH]c1=O [Compound A45]
Enquiry: Exam item: list the entries in increasing order of IC50. Reply format: the labels, ordered as requested.
Return: 1, 2, 3

[A] CCc1cc2c(-c3ccc(F)c4[nH]ncc34)c(N)c(=O)[nH]c2c2cccnc12 [Compound C86]
[B] COc1cc2c(-c3ccc(F)c4[nH]ncc34)c(N)c(=O)[nH]c2c2ccc(=O)[nH]c12 [Compound T4]
[C] Cc1cc2c(-c3ccc(F)c4[nH]ncc34)c(N)c(=O)[nH]c2c2sccc12 [Compound L2]
[D] Nc1c(-c2ccc(Cl)c3[nH]ncc23)c2cc(Cl)c3ccccc3c2[nH]c1=O [Compound B45]
Enquiry: Arrange the 4 molecules from largest to smallest IC50. Reply format: the labels, ordered as requested.
Return: D, A, B, C
(D: 33 nM, A: 4.6 nM, B: 3.2 nM, C: 1.8 nM)
